- method: viability gain of MRP-1-high H69AR cells under doxorubicin, pilot screen, MRP-1 activator project, CellTiter-Glo, duplicate (AID 807);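 further: compound pretreatment 18-22 h then 72 h combined with doxorubicin; 0% = doxorubicin alone and 100% = vehicle without doxorubicin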
- settings: H69AR viability with doxorubicin, CellTiter-Glo luminescence; at 10 µM; active compounds read high
measured.parameter: viability increase (%)
Give the value, in units of %, as a plain number.

Query: Could you share which viability increase value was measured for CCOC(=O)C(C)Sc1nnc(Cn2c(=O)sc3ccccc32)n1-c1ccccc1 (centres undefined) ?
Response: -0.22

Query: Lookup COCC(=O)Nc1ccc(C(N)=O)cc1
Response: -0.44

Query: Lookup O=C(Nc1nnc(-c2ccccc2)o1)c1nc2ccccc2s1
Response: -3.96

Query: Lookup COC(=O)CSc1nc2ccccc2o1
Response: -1.43
